- protocol: self-splicing fitness, log relative to wild type (ln ratio); higher = more splicing; Tetrahymena group I intron in knt gene, E. coli kanamycin selection, DiMSum; sequences stand for … in CUCUCU…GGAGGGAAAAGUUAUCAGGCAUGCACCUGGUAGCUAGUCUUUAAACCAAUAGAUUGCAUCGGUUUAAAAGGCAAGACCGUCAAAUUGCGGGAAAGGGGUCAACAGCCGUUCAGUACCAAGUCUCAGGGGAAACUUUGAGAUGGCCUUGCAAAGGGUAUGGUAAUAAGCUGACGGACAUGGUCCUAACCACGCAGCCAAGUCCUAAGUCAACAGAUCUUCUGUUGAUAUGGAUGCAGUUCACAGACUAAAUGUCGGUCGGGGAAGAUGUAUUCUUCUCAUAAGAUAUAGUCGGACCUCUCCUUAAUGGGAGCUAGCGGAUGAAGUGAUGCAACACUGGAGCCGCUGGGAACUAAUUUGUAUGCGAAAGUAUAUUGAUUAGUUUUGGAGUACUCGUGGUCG;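 also: selection with 25 µg/mL kanamycin versus none on LB agar overnight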
- cond: 30 °C
measurementLabel: self-splicing fitness (ln)
Just the number.

For reference, reported self-splicing fitness (ln) for `ACAAAGCAAUAUUACGAUUC` stands at -1.92

So for `CAUAAGCAAUAUUACGUUAC` , the logged self-splicing fitness (ln) turned out to be -3.85

# self-splicing fitness (ln) of `AGUAAGCAAUAUUACGCUUA` = -3.07

self-splicing fitness (ln) recorded for this sequence, `GCAAAGCAAUAUUACGAAGC` , is -1.83

self-splicing fitness (ln) recorded for this sequence, `CCUUAGCAAUAUUACGCGGC` , is -2.89

self-splicing fitness (ln) reported for this sequence `AAGUAGCAAUAUUACGUGUC` : -2.83

self-splicing fitness (ln) in this record for `UAGCAGCAAUAUUACGUCAA` : -1.79

Entry `GAGUAGCAAUAUUACGGAAC` — recorded self-splicing fitness (ln) = -3.8

====

- protocol: self-splicing fitness, log relative to wild type (ln ratio); higher = more splicing; Tetrahymena group I intron in knt gene, E. coli kanamycin selection, DiMSum; sequences stand for … in CUCUCU…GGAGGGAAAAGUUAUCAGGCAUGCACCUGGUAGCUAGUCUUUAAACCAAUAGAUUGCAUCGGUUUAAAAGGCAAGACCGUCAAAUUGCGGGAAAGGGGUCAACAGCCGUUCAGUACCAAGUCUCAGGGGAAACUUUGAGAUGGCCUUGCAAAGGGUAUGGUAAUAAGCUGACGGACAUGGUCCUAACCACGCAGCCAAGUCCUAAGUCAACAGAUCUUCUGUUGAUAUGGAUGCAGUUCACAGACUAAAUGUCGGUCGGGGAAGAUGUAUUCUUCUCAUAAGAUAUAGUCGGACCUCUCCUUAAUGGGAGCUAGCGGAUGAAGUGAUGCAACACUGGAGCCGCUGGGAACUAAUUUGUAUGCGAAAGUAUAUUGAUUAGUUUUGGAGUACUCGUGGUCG
- cond: 30 °C
measurementLabel: self-splicing fitness (ln)
Please give only the number in your answer, with no unit.

So for `UGGCAGCAAUAUUACGUCCC` , the logged self-splicing fitness (ln) turned out to be 0.385

The value of self-splicing fitness (ln) measured for the sequence `CUGCAGCAAUAUUACGGGGG` turned out to be -2.95

The sequence listed as `CAAGAGCAAUAUUACGCCGA` has a reported self-splicing fitness (ln) of -2.4

So for `AUGAAGCAAUAUUACGUCAU` , the logged self-splicing fitness (ln) turned out to be -2.43

The sequence listed as `UCGGAGCAAUAUUACGAGUA` shows self-splicing fitness (ln) equal to -3.11

Sure, the documented self-splicing fitness (ln) for `GUCUAGCAAUAUUACGGUAU` is -0.441

Measured self-splicing fitness (ln) of `CGGCAGCAAUAUUACGAACC` : -0.757

Form field self-splicing fitness (ln), entry `GAUCAGCAAUAUUACGACAA` : -0.267

Measured self-splicing fitness (ln), `CUCAAGCAAUAUUACGUAAG` : -0.417

Record `GGCAAGCAAUAUUACGAAGC` , field self-splicing fitness (ln): -1.69

Data point: `CAGAAGCAAUAUUACGAUGU` ; self-splicing fitness (ln) = -3.37

self-splicing fitness (ln) recorded for this sequence, `CGUCAGCAAUAUUACGCGCA` , is -1.1

What the record says about `UGUAAGCAAUAUUACGACAG` : self-splicing fitness (ln) is -1.29

self-splicing fitness (ln) measured on `UCUUAGCAAUAUUACGGGAC` = -3.78

So for `UACGAGCAAUAUUACGGUUG` , the logged self-splicing fitness (ln) turned out to be -2.72

Memo: `AUACAGCAAUAUUACGUCGC` , reported self-splicing fitness (ln): -2.42

The values you see were collected from the supplement of paper PMC7877785.
